Where do the numbers come from? From ChEMBL document CHEMBL4477199.

Tested on: CWR22R
protocol-notes: Antiproliferative activity against human 22Rv1 cells after 96 hrs by propidium iodide staining based fluorescence 2D monolayer assay
Format: functional, cell-based
condition-summary: 22Rv1, 96 h
measurement-type: IC50 (µM)
Give bare numbers, in µM.

Give IC50 for each listed item.
1. CC(O)(CS(=O)(=O)c1ccccc1C(F)(F)F)C(=O)Nc1ccc([N+](=O)[O-])cc1C(F)(F)F (stereo unspecified)
2. CC(O)(COc1ccc(C#N)cc1C(F)(F)F)C(=O)Nc1ccc([N+](=O)[O-])c(C(F)(F)F)c1 (stereo unspecified)

## Output
1: 28.3; 2: 5.55

Report IC50 for each item below.
1. CC(O)(CS(=O)(=O)c1ccccc1C(F)(F)F)C(=O)Nc1ccc([N+](=O)[O-])c(C(F)(F)F)c1 (stereo unspecified)
2. CC(O)(CSc1cccc(OC(F)(F)F)c1)C(=O)Nc1ccc([N+](=O)[O-])cc1C(F)(F)F (stereo unspecified)
3. C[C@](O)(COc1ccc(C#N)cc1)C(=O)Nc1ccc(C#N)c(C(F)(F)F)c1

## Output
[18.6, 15.8, 24.8]

Take each entry in turn and give its IC50.
1. CC(O)(CSc1ccc(OC(F)(F)F)cc1)C(=O)Nc1ccc(C#N)c(C(F)(F)F)c1 (stereo unspecified)
2. CC(O)(CS(=O)(=O)c1ccccc1OC(F)(F)F)C(=O)Nc1ccc([N+](=O)[O-])cc1C(F)(F)F (stereo unspecified)
3. CC(O)(COc1ccccc1C(F)(F)F)C(=O)Nc1ccc([N+](=O)[O-])c(C(F)(F)F)c1 (stereo unspecified)
4. C[C@](O)(CS(=O)(=O)c1ccc(C(F)(F)F)cc1)C(=O)Nc1ccc(C#N)c(C(F)(F)F)c1
5. CC(O)(CSc1ccccc1C(F)(F)F)C(=O)Nc1ccc([N+](=O)[O-])cc1C(F)(F)F (stereo unspecified)

## Output
[46.6, 28.8, 20.2, 20.2, 12]

Need IC50 for each of these compounds.
1. CC(O)(COc1ccccc1C(F)(F)F)C(=O)Nc1ccc(C#N)c(C(F)(F)F)c1 (stereo unspecified)
2. CC1(C)C(=O)N(c2ccc(C(F)(F)F)cc2)C(=O)N1c1cccc(C(F)(F)F)c1
3. CC1(C)C(=O)N(c2cccc(C(F)(F)F)c2)C(=O)N1c1ccc(C#N)cc1C(F)(F)F
4. CC(O)(COc1ccccc1C(F)(F)F)C(=O)Nc1ccc(C(F)(F)F)cc1 (stereo unspecified)
5. CC1(C)C(=O)N(c2cccc(C(F)(F)F)c2)C(=O)N1c1cccc(C(F)(F)F)c1
6. CC(O)(CS(=O)(=O)c1cccc(C(F)(F)F)c1)C(=O)Nc1ccc(C#N)cc1C(F)(F)F (stereo unspecified)

## Output
[11.6, 100, 59.3, 6.42, 60.7, 34.4]

Could you tell me IC50 for each of these compounds? They are listed below.
1. CC(O)(CS(=O)(=O)c1ccc(F)cc1)C(=O)Nc1ccc(C#N)c(C(F)(F)F)c1 (stereo unspecified) [BICALUTAMIDE]
2. CC(O)(COc1ccc(C(F)(F)F)cn1)C(=O)Nc1ccc([N+](=O)[O-])c(C(F)(F)F)c1 (stereo unspecified)
3. C[C@](O)(CSc1ccc(OC(F)(F)F)cc1)C(=O)Nc1ccc(C#N)c(C(F)(F)F)c1
4. CC(O)(COc1ccc(C(F)(F)F)cc1)C(=O)Nc1ccc(C#N)c(C(F)(F)F)c1 (stereo unspecified)
5. CC(O)(COc1ccc(C(F)(F)F)cc1)C(=O)Nc1ccc([N+](=O)[O-])c(C(F)(F)F)c1 (stereo unspecified)
6. CC(O)(CS(=O)(=O)c1ccccc1C(F)(F)F)C(=O)Nc1ccc(C#N)c(C(F)(F)F)c1 (stereo unspecified)
7. CC(O)(CS(=O)(=O)c1ccc(F)cc1)C(=O)Nc1ccc([N+](=O)[O-])cc1C(F)(F)F (stereo unspecified)
8. CC(O)(CSc1ccc(F)cc1)C(=O)Nc1ccc([N+](=O)[O-])cc1C(F)(F)F (stereo unspecified)

## Output
1. 49.6
2. 35.2
3. 28.8
4. 6.91
5. 16.2
6. 46.6
7. 46.7
8. 17.6

Quick batch: IC50 for everything below.
1. CC(O)(CS(=O)(=O)c1ccc(C(F)(F)F)cc1)C(=O)Nc1ccc([N+](=O)[O-])cc1C(F)(F)F (stereo unspecified)
2. CC(O)(CS(=O)(=O)c1cccc(C(F)(F)F)c1)C(=O)Nc1ccc([N+](=O)[O-])cc1C(F)(F)F (stereo unspecified)
3. CC(O)(COc1ccc(C#N)c(F)c1)C(=O)Nc1ccc(C#N)cc1C(F)(F)F (stereo unspecified)
4. CC(O)(COc1cccc(C(F)(F)F)c1)C(=O)Nc1ccc([N+](=O)[O-])cc1C(F)(F)F (stereo unspecified)
5. CC(O)(CS(=O)(=O)c1ccc(C(F)(F)F)cn1)C(=O)Nc1ccc([N+](=O)[O-])cc1C(F)(F)F (stereo unspecified)
6. CC(O)(CSc1ccccc1C(F)(F)F)C(=O)Nc1ccc([N+](=O)[O-])c(C(F)(F)F)c1 (stereo unspecified)
7. CC(O)(COc1cccc(OC(F)(F)F)c1)C(=O)Nc1ccc(C#N)c(C(F)(F)F)c1 (stereo unspecified)

## Output
25.4
18.1
45.3
15.2
100
4.6
9.79
